TARGET_ENTITY: T1, EsCas13d, nuclease-dead (Eubacterium siraeum, UniProt B0MS50, R295A;H300A;R849A;H854A)
T1 sequence: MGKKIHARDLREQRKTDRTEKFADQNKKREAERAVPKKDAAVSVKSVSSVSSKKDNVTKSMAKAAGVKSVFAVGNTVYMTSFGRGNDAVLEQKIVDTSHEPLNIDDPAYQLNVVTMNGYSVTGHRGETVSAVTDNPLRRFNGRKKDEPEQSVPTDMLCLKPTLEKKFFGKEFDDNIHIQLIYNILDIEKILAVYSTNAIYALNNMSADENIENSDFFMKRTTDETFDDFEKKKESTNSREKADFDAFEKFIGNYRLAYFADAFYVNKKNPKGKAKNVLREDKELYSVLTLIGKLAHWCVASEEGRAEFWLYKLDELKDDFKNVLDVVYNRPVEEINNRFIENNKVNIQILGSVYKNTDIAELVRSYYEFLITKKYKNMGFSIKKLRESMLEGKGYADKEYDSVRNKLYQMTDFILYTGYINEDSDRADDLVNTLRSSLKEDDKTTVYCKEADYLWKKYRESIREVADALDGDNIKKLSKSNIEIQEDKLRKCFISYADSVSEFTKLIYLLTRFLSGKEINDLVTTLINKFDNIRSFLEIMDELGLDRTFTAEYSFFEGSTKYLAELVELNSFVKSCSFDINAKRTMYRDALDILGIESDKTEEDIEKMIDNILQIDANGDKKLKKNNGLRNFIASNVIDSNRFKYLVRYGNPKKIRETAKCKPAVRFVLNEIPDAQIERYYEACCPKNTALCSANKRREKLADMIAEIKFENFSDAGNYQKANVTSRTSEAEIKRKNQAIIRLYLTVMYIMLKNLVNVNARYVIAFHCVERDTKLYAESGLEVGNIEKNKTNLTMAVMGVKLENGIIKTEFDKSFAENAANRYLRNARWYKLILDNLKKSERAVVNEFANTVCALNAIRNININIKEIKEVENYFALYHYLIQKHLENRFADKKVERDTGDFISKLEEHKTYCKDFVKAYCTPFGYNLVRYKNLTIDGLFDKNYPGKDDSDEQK
TEST_SUMMARY: crRNA (strand 1, pre-loaded); Mg2+; 40 mM Tris-HCl pH 7.5, 150 mM NaCl, 6 mM MgCl2, 1 mM DTT, 0.1% Tween-20, 0.2 mg/ml BSA; 25 C; 10 min per concentration, then washed
EXPERIMENTAL_PARAMETERS: tags: His6-TwinStrep-SUMO cleaved; N-terminal SNAP kept (SNAP-Surface 488); label: 3' end held by stalled T7 RNA polymerase
Reported pKd by item:
Keep in mind that pKd stands for -log10 of concentration in molar terms.

Observe how each entry below is paired with its result.
target 1 A9G,G15C (mixed) RNA 1: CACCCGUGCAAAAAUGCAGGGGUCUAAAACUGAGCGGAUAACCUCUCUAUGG RNA 2: GGGAAUGGAUCCACAUCUACGAAUUCGUACCAUAGACAGGUUGUCCGCUCACCGAGAUCGGAAGAGCACACGU ... 7.17
target 1 A1U,U10C (mixed) RNA 1: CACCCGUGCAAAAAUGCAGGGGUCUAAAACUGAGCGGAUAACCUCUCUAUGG RNA 2: GGGAAUGGAUCCACAUCUACGAAUUCGUACCAUAGAGAGGUCAUCCGCUCUCCGAGAUCGGAAGAGCACACGU ... 7.70
target 2 MT 5'PFS AAC 3'PFS UUA (mixed) RNA 1: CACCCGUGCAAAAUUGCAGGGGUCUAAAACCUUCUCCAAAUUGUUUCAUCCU RNA 2: GGGAAUGGAUCCACAUCUACGAAUUCAACAGGAUGAAACAAUUUGGAGAAGUUAAGAUCGGAAGAGCACACGU ... 8.13

Value of measured pKd for the entry target 1 MT 5'PFS GAC 3'PFS AUA (mixed) RNA 1: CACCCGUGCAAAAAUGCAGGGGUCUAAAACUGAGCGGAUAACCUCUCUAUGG RNA 2: GGGAAUGGAUCCACAUCUACGAAUUCGACCCAUAGAGAGGUUAUCCGCUCAAUAAGAUCGGAAGAGCACACGU : 7.60
